Where do these numbers come from? They come from the RNAGym collection of RNA variant scans (doi:10.7554/elife.80360).

B1: CPEB3 Ribozyme (parent)
chain: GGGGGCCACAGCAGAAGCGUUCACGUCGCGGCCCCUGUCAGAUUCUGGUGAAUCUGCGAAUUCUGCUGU

Variants of: B1
ASSAY REMARKS: self-cleavage, relative activity (ratio to wild type); higher = more cleavage; co-transcriptional
Cut-off 0.3 on self-cleavage, inclusive. At or above means true (1); below means false (0).

Req: Could you verify whether the entry A23G U49C shows self-cleavage of no less than 0.3?
Resp: true (1)
